- targetUnderTest: p-EGFR Del19/C797S (H1975-clone #23 cells) (Homo sapiens)
- testProtocol: Cell p-EGFR inhibition assay, HTRF, H1975-clone#23 (DEL19/C797S) cells
- Format: cell-based
- protocolConditions: 16 h treatment, maximum percentage of pEGFR inhibition
outcomeMeasure: Imax (%)
Numbers only here, please. The scale is %.

Worked examples follow.
compound: Cc1cc2cc(n1)-c1cnn(C)c1OC[C@H]1CCC(C1)CN1/C(=N/C2=O)Nc2ccc(N3CCN([C@H]4CCN(c5cc(F)c([C@H]6CCC(=O)NC6=O)c(F)c5)C[C@H]4F)CC3)cc21 (single isomer, unassigned)
experimentalResult: 100.5
//
compound: Cc1cc2cc(n1)-c1cnn(C)c1OC[C@H]1CCC(C1)CN1/C(=N/C2=O)Nc2ccc(N3CCN(C4CCN(c5ccc(NC6CCC(=O)NC6=O)cc5Cl)CC4)CC3)cc21 (stereo partly drawn)
experimentalResult: 102

p-EGFR Del19/C797S (H1975-clone #23 cells) (Homo sapiens) / Imax (%) / COC[C@H]1CN(c2ccc3c(c2)N2CC4CC[C@H](COc5c(cnn5C)-c5cc(cc(C)n5)C(=O)/N=C/2N3)C4)CCN1C1CCN(c2cc(F)c(C3CCC(=O)NC3=O)nc2C)CC1 (stereo partly drawn) : value? 99.8
